- System: OVCAR3 cells
- test_summary: Cell proliferation study (Cell Titer Glo, 72 h)
- Format: cell-based
- study_conditions: Homo sapiens, OVCAR-3, luminescence, read-out: IC50, inhibitory effect on cellular proliferation
pIC50: −log10 of the molar value.
assay_metric: pIC50

**Query** Consider the compound shown here: C[C@@]1(O)CCC[C@H]1n1c(=O)c(C(F)F)cc2cnc(NC3CCN(S(=O)(=O)C4CCN(C5CC6(CCN(c7cc8c(cc7F)C(=O)N(C7CCC(=O)NC7=O)C8=O)CC6)C5)CC4)CC3)nc21 (some centres unmarked) What is its recorded pIC50?
**Result** 6.00 to 7.00

**Query** Consider the compound shown here: Cc1nc2c(F)cc(-c3nc(Nc4ccc(S(=O)(=O)N5CCN(C6CCN(C7CN(c8cccc9c8C(=O)N(C8CCC(=O)NC8=O)C9=O)C7)CC6)CC5)cc4)ncc3F)cc2n1C(C)C (centres unmarked) What is its recorded pIC50?
**Result** 5.30 to 6.00

**Query** Consider the compound shown here: C[C@@]1(O)CCC[C@H]1n1c(=O)ccc2cnc(NC3CCN(S(=O)(=O)C4CCN(C5CCC6(CCN(c7cc8c(cc7F)C(=O)N(C7CCC(=O)NC7=O)C8=O)C6)C5)CC4)CC3)nc21 (some centres unmarked) What is its recorded pIC50?
**Result** 6.00 to 7.00

**Query** Consider the compound shown here: C[C@@]1(O)CCC[C@H]1n1c(=O)ccc2cnc(NC3CCN(S(=O)(=O)C4CCN(C5CC6(CCN(c7cccc8c7C(=O)N(C7CCC(=O)NC7=O)C8=O)CC6)C5)CC4)CC3)nc21 (some centres unmarked) What is its recorded pIC50?
**Result** 6.00 to 7.00

**Query** Consider the compound shown here: CC(C)N1CCOc2c(F)cc(-c3nc(Nc4ccc(C5CCN(C(=O)CCCCCCCCOc6cccc7c6C(=O)N(C6CCC(=O)NC6=O)C7=O)CC5)cn4)ncc3F)cc21 (centres unmarked) What is its recorded pIC50?
**Result** < 5.00

* * *

- Test system: OVCAR3 cells
- test_summary: Cell proliferation study (Cell Titer Glo, 72 h)
- Assay type: cell-based
- study_conditions: Homo sapiens, OVCAR-3, luminescence, read-out: IC50, inhibitory effect on cellular proliferation
Answer each item with its documented IC50.

**Query** Hi! What's the reported IC50 for C[C@@]1(O)CCC[C@H]1n1c(=O)ccc2cnc(NC3CCN(S(=O)(=O)C4CCN(C(=O)C5CC6(CCN(c7cc8c(cc7F)C(=O)N(C7CCC(=O)NC7=O)C8=O)CC6)C5)CC4)CC3)nc21 (some centres unmarked) [Compound 77] on OVCAR3 cells?
**Result** 1000 to 5000 nM

**Query** Hi! What's the reported IC50 for Cc1nc2c(F)cc(-c3nc(NC4CCN(S(=O)(=O)C5CCN(C6CN(C7CCN(c8cc9c(cc8F)C(=O)N(C8CCC(=O)NC8=O)C9=O)CC7)C6)CC5)CC4)ncc3F)cc2n1C(C)C (centres unmarked) [Compound 79] on OVCAR3 cells?
**Result** < 100 nM

**Query** Hi! What's the reported IC50 for Cc1nc2c(F)cc(-c3nc(NC4CCN(S(=O)(=O)C5CCN(C6CCN(C7CN(c8cc9c(cc8F)C(=O)N(C8CCC(=O)NC8=O)C9=O)C7)CC6)CC5)CC4)ncc3F)cc2n1C(C)C (centres unmarked) [Compound 83] on OVCAR3 cells?
**Result** < 100 nM

**Query** Hi! What's the reported IC50 for CC(C)[C@@H]1CC[C@@H](C)C[C@H]1OCC(=O)NCCS(=O)(=O)N1CCC(Nc2ncc(F)c(-c3cc(F)c4c(c3)N(C(C)C)CCO4)n2)CC1 [Compound 27] on OVCAR3 cells?
**Result** > 10000 nM

**Query** Hi! What's the reported IC50 for CC(C)N1CCOc2c(F)cc(-c3nc(Nc4ccc(S(N)(=O)=O)cc4)ncc3F)cc21 [Compound 31] on OVCAR3 cells?
**Result** 101 to 1000 nM

* * *

- measured_target: CDK1 protein (Homo sapiens)
- Construct: host or cells: OVCAR3
- Sequence (P06493 whole entry): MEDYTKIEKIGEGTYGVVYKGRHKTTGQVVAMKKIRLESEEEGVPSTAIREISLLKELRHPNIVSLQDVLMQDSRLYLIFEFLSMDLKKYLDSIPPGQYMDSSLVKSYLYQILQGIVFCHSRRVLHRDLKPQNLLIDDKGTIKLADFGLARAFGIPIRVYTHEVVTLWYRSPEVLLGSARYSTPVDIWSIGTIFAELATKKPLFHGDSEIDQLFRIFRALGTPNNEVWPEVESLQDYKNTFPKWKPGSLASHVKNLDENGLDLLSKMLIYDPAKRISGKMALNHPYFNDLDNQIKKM
- test_summary: CDK1 protein degradation in OVCAR3 cells (Western blot)
- Assay type: cell-based
- study_conditions: OVCAR-3, 50 nM test compound, 24 h, read-out: level of CDK1 protein degradation
assay_metric: percent CDK1 protein degradation at 0.05 µM

**Query** Consider the compound shown here: Cc1nc2c(F)cc(-c3nc(NC4CCN(S(=O)(=O)C5CCN(C6CCN(C7CN(c8cc9c(cc8F)C(=O)N(C8CCC(=O)NC8=O)C9=O)C7)CC6)CC5)CC4)ncc3F)cc2n1C(C)C (stereo not drawn) What is its recorded percent CDK1 protein degradation at 0.05 µM?
**Result** 31 to 60%

**Query** Consider the compound shown here: C[C@@]1(O)CCC[C@H]1n1c(=O)ccc2cnc(NC3CCN(S(=O)(=O)C4CCN(C5CC6(CCN(c7cc8c(cc7F)C(=O)N(C7CCC(=O)NC7=O)C8=O)CC6)C5)CC4)CC3)nc21 (stereo partly drawn) What is its recorded percent CDK1 protein degradation at 0.05 µM?
**Result** > 60%

**Query** Consider the compound shown here: Cc1nc2c(F)cc(-c3nc(Nc4ccc(S(=O)(=O)C5CCN(C6CCN(C7CN(c8cc9c(cc8F)C(=O)N(C8CCC(=O)NC8=O)C9=O)C7)CC6)CC5)cc4)ncc3F)cc2n1C(C)C (stereo not drawn) What is its recorded percent CDK1 protein degradation at 0.05 µM?
**Result** > 60%

**Query** Consider the compound shown here: C[C@@]1(O)CCC[C@H]1n1c(=O)ccc2cnc(NC3CCN(S(=O)(=O)C4CCN(CC5CCN(C6CN(c7cc8c(cc7F)C(=O)N(C7CCC(=O)NC7=O)C8=O)C6)CC5)CC4)CC3)nc21 (stereo partly drawn) What is its recorded percent CDK1 protein degradation at 0.05 µM?
**Result** > 60%

**Query** Consider the compound shown here: C[C@@]1(O)CCC[C@H]1n1c(=O)c(C(F)F)cc2cnc(NC3CCN(S(=O)(=O)C4CCN(CC5CCN(C6CN(c7cc8c(cc7F)C(=O)N(C7CCC(=O)NC7=O)C8=O)C6)CC5)CC4)CC3)nc21 (stereo partly drawn) What is its recorded percent CDK1 protein degradation at 0.05 µM?
**Result** > 60%

**Query** Consider the compound shown here: Cc1nc2c(F)cc(-c3nc(NC4CCN(S(=O)(=O)C5CCN(C6CN(C7CCN(c8cc9c(cc8F)C(=O)N(C8CCC(=O)NC8=O)C9=O)CC7)C6)CC5)CC4)ncc3F)cc2n1C(C)C (stereo not drawn) What is its recorded percent CDK1 protein degradation at 0.05 µM?
**Result** > 60%
